Test system: DU-145 prostate
Test: NCI-60 one-dose screen, 48 h
Settings: 10 µM unless noted
About 83,000 compounds went through this panel and 20% of them were active in at least one assay; those are over-represented in the sample as a whole. The source made the active and inactive calls. Rule for the calls: active = growth percent below 10; inactive = the rest.
Classes used: active, inactive

INSERT INTO assay_data (compound, class) VALUES
  ('CCCCc1ccc2nc(NC(=O)OC)[nH]c2c1', 'active'),
  ('CCOC(=O)/C(C#N)=C\c1c[nH]c2ccccc12', 'inactive'),
  ('Cn1c(=O)c2nc3c(=O)n(C)c(=O)n(C)c3nc2n(C)c1=O', 'inactive'),
  ('Cc1cc(CO)c(O)c(CO)c1', 'inactive'),
  ('CC(c1ccccc1)N(C)C (stereo unspecified)', 'inactive'),
  ('NC(=S)N/N=C/c1ccc(OC(=O)COc2ccccc2)cn1', 'inactive'),
  ('CC(CCC#N)(CCC#N)C(=O)c1ccccc1', 'inactive'),
  ('CCOC(=N)CC(=O)Nc1cccc(C)c1Cl', 'inactive'),
  ('CCc1ccccc1C(=O)N(CC)CC', 'inactive'),
  ('CN(C)CCOC(=O)Nc1ccc(Cc2ccc(NC(=O)OCCN(C)C)cc2)cc1', 'inactive'),
  ('CC(C)N1CC(=O)N2CSCC2C1=O (stereo unspecified)', 'inactive'),
  ('C=CC(C)(C)n1cc(C2=C(O)C(=O)C(c3cn(C(C)(C)C=C)c4ccccc34)=C(O)C2=O)c2ccccc21', 'inactive'),
  ('O=C(Nc1ccc([N+](=O)[O-])cc1)C(=O)Nc1ccc([N+](=O)[O-])cc1', 'inactive'),
  ('O=C(NCc1ccco1)Nc1cccc2c(NC(=O)NCc3ccco3)cccc12', 'inactive'),
  ('COC(c1ccc2c(c1)OCO2)C(C)Br (stereo unspecified)', 'inactive'),
  ('COc1cccc(C(=O)O)c1OC', 'inactive'),
  ('CC(=O)CSc1ncnc2nc[nH]c12', 'inactive'),
  ('CSc1nsc(N)n1', 'inactive'),
  ('c1ccc(-c2ccc3ccccc3c2)cc1', 'inactive'),
  ('CC(C)C1CCC(C)C(O)C1 (stereo unspecified)', 'inactive'),
  ('O=C(NCc1ccccc1)c1cccc([N+](=O)[O-])c1', 'inactive'),
  ('Cc1cc(C(=O)c2ccccc2)cc(C)c1O', 'inactive'),
  ('CCCCCC#CC(=O)O', 'inactive'),
  ('CCCCCCCCCCCCCC/C=C\C(CC(=O)O)C(=O)O (stereo unspecified)', 'inactive'),
  ('C[n+]1cc2cc3c(cc2c2ccccc21)OCO3', 'inactive'),
  ('COC1=C(OC)C(=O)C(SC/C=C(\C)CCCC(C)CCCC(C)CCCC(C)C)=CC1=O (stereo unspecified)', 'inactive'),
  ('COc1ccc(Br)c(C=O)c1', 'inactive'),
  ('CCCCCCCCCCCCCCCCCC(=O)NCCNC(=O)CCCCCCCCCCCCCCCCC', 'inactive'),
  ('CSc1cnc2ccccc2n1', 'inactive'),
  ('OC(CCN1CCCCC1)(c1ccccc1)c1ccccc1', 'inactive'),
  ('O=C(Nc1cccc(Cl)c1)c1ccc(Cl)cc1Cl', 'inactive'),
  ('CC(C)(N)CO[C@H]1C[C@H]2CC[C@@]1(C)C2(C)C', 'inactive'),
  ('c1ccc(Nc2ccccn2)nc1', 'inactive'),
  ('O=C(O)Cc1ccc(Cl)cc1', 'inactive'),
  ('CC(=O)NC(O)C(Cl)Cl (stereo unspecified)', 'inactive'),
  ('COc1ccc(C)cc1NC(=O)SC(C)C', 'inactive'),
  ('Cc1c(Cl)cccc1N=C=S', 'inactive'),
  ('CCOS(=O)(=O)c1ccc([N+](=O)[O-])cc1', 'inactive'),
  ('CC1(C)CC(=O)C=C(N)C1', 'inactive'),
  ('O=S(=O)(O)c1cccnc1', 'inactive'),
  ('Cc1ccc(NC(=S)N2CCOCC2)cc1C', 'inactive'),
  ('CC(=O)Oc1c(Cl)cccc1-c1ccccc1', 'inactive'),
  ('Cc1c(Cl)cccc1NC(=S)NC(=O)c1ccccc1', 'inactive'),
  ('C[C@H](CCC[C@H](C)OS(=O)(=O)c1ccccc1)OS(=O)(=O)c1ccccc1', 'inactive'),
  ('C=C1C(=O)C2CCN1CC2', 'inactive'),
  ('CC(=O)NNC(=S)N/C=C/c1c(C)ccc([N+](=O)[O-])c1[N+](=O)[O-]', 'inactive'),
  ('Cc1[nH]n(-c2ccccc2)c(=O)c1C=NC(=S)C(N)=S', 'inactive'),
  ('C=CCS(C)(=O)=O', 'inactive'),
  ('CC(c1ccccc1)N1C(=O)CSC1=S (stereo unspecified)', 'inactive'),
  ('CCOC(=O)C(C#N)=C1CCN(C)CC1', 'inactive'),
  ('CCCC(=O)CC(=O)c1ccccc1', 'inactive');
